Reference source: ChEMBL document CHEMBL1133907

Molecular target: Proto-oncogene tyrosine-protein kinase Src (Homo sapiens, UniProt P12931)
Sequence (P12931 2-536 limits assumed): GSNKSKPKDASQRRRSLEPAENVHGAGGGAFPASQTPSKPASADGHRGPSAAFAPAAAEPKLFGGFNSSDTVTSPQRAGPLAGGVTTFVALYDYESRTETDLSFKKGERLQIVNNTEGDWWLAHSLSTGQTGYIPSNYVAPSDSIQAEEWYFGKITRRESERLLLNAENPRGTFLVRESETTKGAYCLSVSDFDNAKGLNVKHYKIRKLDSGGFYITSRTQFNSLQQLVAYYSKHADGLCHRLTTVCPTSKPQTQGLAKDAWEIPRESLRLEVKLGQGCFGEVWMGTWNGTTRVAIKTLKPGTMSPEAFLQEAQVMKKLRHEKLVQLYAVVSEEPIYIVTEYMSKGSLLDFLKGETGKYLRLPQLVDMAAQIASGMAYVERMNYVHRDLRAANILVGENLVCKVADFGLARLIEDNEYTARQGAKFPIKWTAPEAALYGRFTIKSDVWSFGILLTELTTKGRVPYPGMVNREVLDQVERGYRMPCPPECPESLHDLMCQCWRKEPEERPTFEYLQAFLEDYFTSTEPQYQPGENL
Assay: Binding affinity was determined on Src protein tyrosine kinase SH2 domain using fluorescence polarization assay with 2% DMSO in buffer solution
result type: IC50 (µM)
Numbers only, in µM.

Fill in: IC50 of COc1ccc(C2Sc3ccccc3N(CC(=O)NCc3cccc4ccccc34)C(=O)C2NC(=O)c2ccc3c(Cl)c(OP(=O)(O)OCc4ccccc4)ccc3c2)cc1 (stereo unspecified) is ___ 27

Any idea what IC50 was measured for COc1ccc(C2Sc3ccccc3N(CC(=O)NCc3cccc4ccccc34)C(=O)C2NC(=O)CCc2ccc(OP(=O)(O)OCc3ccccc3)cc2)cc1 (stereo unspecified) ? 339

Need IC50 of COc1ccc(C2Sc3ccccc3N(CC(=O)NCc3cccc4ccccc34)C(=O)C2NC(=O)[C@H](Cc2ccc(OP(=O)(O)OCc3ccccc3)cc2)NC(=O)OC(C)(C)C)cc1 (stereo in doubt; 3b) , thanks. 118

Report IC50 for COc1ccc(C2Sc3ccccc3N(C(C(=O)Nc3cccc4ccccc34)c3ccccc3)C(=O)C2NC(=O)[C@H](Cc2ccc(OP(=O)(O)OCc3ccccc3)cc2)NC(=O)OC(C)(C)C)cc1 (stereo partly specified) please. 23

Respectfully, I request IC50 for each entry included below.
1. CC(=O)N[C@@H](Cc1ccc(OP(=O)(O)O)cc1)C(=O)N[C@H]1CSCCN(Cc2cccc(C(F)(F)F)c2)C1=O
2. CC(=O)N[C@@H](Cc1ccc(OP(=O)(O)O)cc1)C(=O)N[C@H]1CSCCN(Cc2cccc(C(=O)c3ccccc3)c2)C1=O

1: 1.6; 2: 1.6

----------
Give measured pIC50 for each item. Keep answers brief.
Biological target: Proto-oncogene tyrosine-protein kinase Src (Homo sapiens, UniProt P12931)
Experiment: Binding affinity was determined on Src protein tyrosine kinase SH2 domain using fluorescence polarization assay with 2% DMSO in buffer solution
Answers are plain numbers, as −log10 of the molar value.

Example molecules with recorded pIC50:
Quick one: pIC50 of COc1ccc(C2Sc3ccccc3N(CC(=O)Nc3ccc(Oc4ccccc4)cc3)C(=O)C2NC(=O)[C@H](Cc2ccc(OP(=O)(O)OCc3ccccc3)cc2)NC(=O)OC(C)(C)C)cc1 (some centres not stated) ? 4.54

Request the reported pIC50 associated with COc1ccc(C2Sc3ccccc3N(CC(=O)NCc3cccc4ccccc34)C(=O)C2NC(=O)c2ccc3cc(OP(=O)(O)OCc4ccccc4)ccc3c2)cc1 (configuration not stated) 4.64

Please look up its pIC50: COc1ccc(C2Sc3ccccc3N(CC(=O)Nc3cccc4ccccc34)C(=O)C2NC(=O)[C@H](Cc2ccc(OP(=O)(O)OCc3ccccc3)cc2)NC(=O)OC(C)(C)C)cc1 (stereo in doubt; 3c) 3.72

Endpoint output: pIC50 of COc1ccc(C2Sc3ccccc3N(CC(=O)Nc3cccc4ccccc34)C(=O)C2NC(=O)[C@H](Cc2ccc(OP(=O)(O)OCc3ccccc3)cc2)NC(=O)OC(C)(C)C)cc1 (stereo in doubt; 3m) . Value? 4.59

Consider the molecule shown here: COc1ccc(C2Sc3ccccc3N(CC(=O)NCc3cccc4ccccc34)C(=O)C2NC(=O)c2ccc(OP(=O)(O)OCc3ccccc3)cc2)cc1 (configuration not stated) What is its recorded pIC50? 4.70

For every item below, please supply its pIC50.
1. COc1ccc(C2Sc3ccccc3N(CC(=O)NCc3cccc4ccccc34)C(=O)C2NC(=O)c2cc3cc(OP(=O)(O)OCc4ccccc4)ccc3[nH]2)cc1 (configuration not stated)
2. CC(C)(C)OC(=O)N[C@@H](Cc1ccc(OP(=O)(O)OCc2ccccc2)cc1)C(=O)NC1CSc2ccccc2N(CCCC2CCCCC2)C1=O (some centres not stated)

1: 4.49; 2: 4.59
